Data provenance: ChEMBL document CHEMBL1201862

Tested on: HOP-62
Assay info: NCI tumour cell line growth inhibition, 48 h
Active and inactive are the calls of the source. No stated cut-off is given here; in the data, active = GI50 up to about 1.1 µM and inactive = higher.

Compound: C/C(=N\c1ccc(Cl)c(Cl)c1)c1ccncc1
GI50: > 100 µM (inactive)
//
Compound: C=CCNC(=S)N/C=C(\C#N)C(N)=O
GI50: > 100 µM (inactive)
//
Compound: O=c1[nH]c(=S)c2cc3c(=S)[nH]c(=O)n(CCO)c3nc2n1CCO
GI50: > 100 µM (inactive)
//
Compound: CC1CCP(=O)(c2ccccc2)CC1 (centres undefined)
GI50: > 100 µM (inactive)
//
Compound: CCOC(=O)C12CCCC1(O)N(NC(=O)OC)C(C)=C2C(=O)OC (centres undefined)
GI50: > 100 µM (inactive)
//
Compound: O=C1/C(=C/c2cccc(Br)c2)CCc2ccccc21
GI50: 16 µM (inactive)
//
Compound: Cc1oc2c(c1C)S(=O)(=O)C(C#N)=C(N(C)C)N2
GI50: > 100 µM (inactive)
//
Compound: Cc1cc2c(-c3ccccc3)cc(=O)[nH]c2cc1N
GI50: > 100 µM (inactive)
//
Compound: CC1(C)CCCCCCCCCC(C)(CCCO)C1=O (centres undefined)
GI50: 16.6 µM (inactive)
//
Compound: Cc1nc2c(n1CCC(C)C)C(=O)c1ccccc1C2=O
GI50: 18 µM (inactive)
//
Compound: Cc1ccccc1OC(C)C(=O)NN1C(=O)CSC1c1ccccc1 (centres undefined)
GI50: > 100 µM (inactive)
//
Compound: c1ccc(SCCc2ccncc2)cc1
GI50: > 100 µM (inactive)
//
Compound: CC1=Nn2c(nc3sc4c(c3c2=O)CCCC4)SC1
GI50: > 100 µM (inactive)
//
Compound: Cc1cc(=O)[nH]c2cc(NC(=O)C(CCCNC(=N)N)NC(=O)OCc3ccccc3)ccc12 (centres undefined)
GI50: > 100 µM (inactive)
//
Compound: CC1CCc2c(c(CC3CC(=O)NC(=O)C3)nn2-c2ccccc2)C1 (centres undefined)
GI50: > 100 µM (inactive)
//
Compound: CN(C)CCNC(=O)c1cccc2ccc(-c3ccc(-c4ccccc4)cc3)nc12
GI50: 3.3 µM (inactive)
//
Compound: C=CCN1CCC23c4c5ccc(O)c4OC2C(=NN=C2CCC4(O)C6Cc7ccc(O)c8c7C4(CCN6CC=C)C2O8)CCC3(O)C1C5 (centres undefined)
GI50: 21.4 µM (inactive)
//
Compound: Nc1nc(O)c2ncn(C3C=CC(CO)C3)c2n1 (centres undefined)
GI50: > 100 µM (inactive)
//
Compound: COP(=O)(OC)/C(=C/c1cn(C(C)=O)c2ccccc12)NC(C)=O
GI50: 41.3 µM (inactive)

###

Tested on: T47D
Assay info: NCI tumour cell line growth inhibition, 48 h
Activity calls are given as the source filed them. Rule as the data show it: active = GI50 up to about 1.1 µM and inactive = higher.
Possible outcomes: active, inactive

Compound: CC(C)c1nc(Cl)nc(Cl)c1Cl
System: T47D
Assigned label: active

Compound: COc1nc2ccc(CNc3ccc(C(=O)NC(CCC(=O)O)C(=O)O)cc3)cc2nc1OC (stereo not given)
System: T47D
Assigned label: inactive

Compound: COCc1nc2c(OC)c(-c3nc4ccc(N5CCN(C)CC5)nc4[nH]3)cc(OC)c2n1C
System: T47D
Assigned label: inactive

Compound: COc1ccc(-c2c(=O)[nH]n3c(=S)[nH]c(-c4ccccc4)nc23)cc1OC
System: T47D
Assigned label: inactive

Compound: Cc1cc(=O)[nH]c2cc(NC(=O)C(CCCNC(=N)N)NC(=O)OCc3ccccc3)ccc12 (stereo not given)
System: T47D
Assigned label: inactive

Compound: O=C1NCC2(CCN(Cc3ccccc3)CC2)N1
System: T47D
Assigned label: inactive

Compound: CC(NC(=O)C(Cc1ccc(OC(=O)c2ccccc2)cc1)NC(=O)OC(C)(C)C)C(=O)NCC(=O)NC(Cc1ccccc1)NC(=O)OCc1ccccc1 (stereo not given)
System: T47D
Assigned label: inactive

Compound: CC1(C)O[C@@H]([C@H](O)CO)[C@H](O)[C@@H](C2SCCCS2)O1
System: T47D
Assigned label: inactive

Compound: Nc1nc(O)c2ncn(C3C=CC(CO)C3)c2n1 (stereo not given)
System: T47D
Assigned label: inactive

Compound: Nc1c(C(=O)c2ccc(Cl)c(Cl)c2)[nH]c(NCc2ccccc2)c1C(=S)Nc1ccccc1
System: T47D
Assigned label: inactive

Compound: COC(OC)C1OC(CO)C(n2cc(F)c(=O)[nH]c2=O)C1O (stereo not given)
System: T47D
Assigned label: inactive

Compound: Cc1cc2c(-c3ccccc3)cc(=O)[nH]c2cc1N
System: T47D
Assigned label: inactive

Compound: O=C(c1ccccc1)N(C(=O)c1ccccc1)c1nc(SCc2ccccc2)ns1
System: T47D
Assigned label: inactive

Compound: COC(=O)c1c(OC(C)=O)ccc2c1c1c(OC(C)=O)c3ccccc3c(OC(C)=O)c1n2Cc1ccccc1
System: T47D
Assigned label: inactive

Compound: Cc1cc2cc3cc(C)c(N)cc3nc2cc1N
System: T47D
Assigned label: active

###

Test system: NCI-H23
Assay info: NCI tumour cell line growth inhibition, 48 h
Active and inactive are the calls of the source. Rule as the data show it: active = GI50 up to about 1.1 µM and inactive = higher.
Quick list: GI50 per entry.

Compound: N#Cc1ccc(NC(=O)C(CC(=O)OCc2ccccc2)NC(=O)OCc2ccccc2)cc1 (stereo not drawn)
GI50: > 10 µM (inactive)
--
Compound: CN(C)c1ccc(/C=N/c2ccc(-c3nc4ccccc4s3)cc2)cc1
GI50: 29.9 µM (inactive)
--
Compound: CCCCCCCCCCCCCCCCCCNC(=O)OCC(CNS(=O)(=O)CCC[n+]1cccc2ccccc21)COC (stereo not drawn)
GI50: 1.16 µM (inactive)

###

Consider the following molecules and their measured GI50 readings.
Test system: SNB-19
Assay info: NCI tumour cell line growth inhibition, 48 h
Calls of active or inactive are those of the source. Rule as the data show it: active = GI50 up to about 1.1 µM and inactive = higher.

Molecule: C=CCN1C(=O)/C(=C/c2ccco2)N=C1SC/C=C/C
System: SNB-19
GI50: 71.3 µM (inactive)

Molecule: COCOCc1cc(OCc2ccccc2)c(OC)cc1Br
System: SNB-19
GI50: > 100 µM (inactive)

Molecule: Cc1ncc(C/N=C/c2ccc(Cl)cc2)c(N)n1
System: SNB-19
GI50: > 100 µM (inactive)

Molecule: O=C(/C=C/c1cccc([N+](=O)[O-])c1)c1cccnc1
System: SNB-19
GI50: > 53.3 µM (inactive)

Molecule: Cc1c(-c2ccccc2)cc(O)c2nc3ccccc3n12
System: SNB-19
GI50: 96.8 µM (inactive)

Molecule: Nc1nc(=O)c2c([nH]1)NCC(CCNc1ccc(C(=O)O)cc1)N2 (stereo unspecified)
System: SNB-19
GI50: > 100 µM (inactive)

###

Test system: SNB-75
Assay info: NCI tumour cell line growth inhibition, 48 h
The source made the active and inactive calls. Rule as the data show it: active = GI50 up to about 1.1 µM and inactive = higher.
Classes used: active, inactive

Compound: COC(=O)C1(Cc2ccccc2)Cc2cc3c(cc2C1O)CCC3 (stereo not given)
Assigned label: inactive
--
Compound: CCCCCCCCCCCCCCCCCCNC(=O)OCC(CNS(=O)(=O)CCC[n+]1cccc2ccccc21)COC (stereo not given)
Assigned label: inactive
--
Compound: Oc1c([Si](c2ccccc2)(c2ccccc2)c2ccccc2)cc2ccccc2c1-c1c(O)c([Si](c2ccccc2)(c2ccccc2)c2ccccc2)cc2ccccc12
Assigned label: inactive
--
Compound: C/C(CCN(C)C)=N/O
Assigned label: inactive
--
Compound: COc1ccc(C(OC(C)=O)C2C(=C(C#N)C#N)c3ccccc3C2=C(C#N)C#N)cc1 (stereo not given)
Assigned label: inactive
--
Compound: O=C1c2ccccc2C(=O)c2c1ccc1nc3c(nc21)-c1c2ccccc2cc2cccc-3c12
Assigned label: inactive
--
Compound: CC(C(=O)c1ccccc1)C1(O)C(=O)Nc2ccc(Cl)cc21 (stereo not given)
Assigned label: inactive
--
Compound: Cc1cc(=O)[nH]c2cc(NC(=O)C(CCCNC(=N)N)NC(=O)OCc3ccccc3)ccc12 (stereo not given)
Assigned label: inactive
--
Compound: C1=C(CC2=C[P+](c3ccccc3)(c3ccccc3)C=C(c3ccccc3)O2)OC(c2ccccc2)=C[P+]1(c1ccccc1)c1ccccc1
Assigned label: active
--
Compound: O=C1OC(C2OC(=O)c3cc(O)c(O)c(O)c3-c3c(O)c(O)c4oc(=O)c5c(c(O)c(O)c6oc(=O)c3c4c65)-c3c(cc(O)c(O)c3O)C(=O)OCC2O)C2OC(=O)c3c(c(O)c(O)c(O)c3[C@H]2O)-c2c1cc(O)c(O)c2O (stereo not given in full)
Assigned label: inactive
--
Compound: CN(C)CC1CCCC(CN(C)C)C1=NOC(=O)c1ccccc1 (stereo not given)
Assigned label: inactive
--
Compound: NC1=C(N2CCOCC2)C(=O)NC2=N/C(=C\c3ccccc3)C(=O)N21
Assigned label: inactive
--
Compound: [O-][n+]1c2cc(CN3CCOCC3)c(CN3CCOCC3)cc2[n+]([O-])c2c(O)cccc21
Assigned label: inactive
--
Compound: C/C(=N\c1ccc(Cl)c(Cl)c1)c1ccncc1
Assigned label: inactive
--
Compound: O=C1/C(=C/c2cccc(Br)c2)CCc2ccccc21
Assigned label: inactive
--
Compound: O=C1N/C(=N/N=C/c2c[nH]c3ccccc23)N/C1=C\c1c[nH]c2ccccc12
Assigned label: inactive
--
Compound: CCN(CC)CCNC(=O)c1ccccc1Nc1c(Cl)cccc1Cl
Assigned label: inactive
--
Compound: CC(/C=N/N(C)C1=NCCCN1)=N/N(C)C1=NCCCN1
Assigned label: inactive
--
Compound: Cc1ccc(-c2cc(O)c3nc4ccccc4n3c2)cc1
Assigned label: inactive
--
Compound: O=C1NC(=O)C2C1N(Cc1ccccc1)C(=O)N2Cc1ccccc1 (stereo not given)
Assigned label: inactive
--
Compound: CCC(=O)O[C@H]1CC[C@H]2[C@@H]3CCC4=C/C(=N/OC(=O)c5cccc6c(=O)c7ccccc7[nH]c56)CC[C@]4(C)[C@H]3CC[C@]12C
Assigned label: inactive
--
Compound: O=c1c2cc(Br)cc(Br)c2[nH]c(=S)n1-c1ccccc1
Assigned label: inactive
--
Compound: COP(=O)(OC)/C(=C/c1cn(C(C)=O)c2ccccc12)NC(C)=O
Assigned label: inactive
--
Compound: C/C(=N\N=C(/S)N1CC2CCC(CC2)C1)c1cccc[n+]1[O-]
Assigned label: inactive
--
Compound: Cc1cc2c(=O)c3ccc(Cl)cc3[nH]c2c(C(=O)O)c1C
Assigned label: inactive
--
Compound: C=CCP(=O)(CC=C)C(Cl)Cl
Assigned label: inactive
--
Compound: C[C@]12CCC3=NCCN3C1=CC[C@@H]1[C@@H]2CC[C@@]2(C)[C@H]1CC[C@]2(C)O
Assigned label: inactive
--
Compound: O=C(CC12C3C4C1C1C2C3C41CC(=O)NO)NO (stereo not given)
Assigned label: inactive
--
Compound: N#CC(C#N)=c1c2nsnc2c(=C(C#N)C#N)c2nsnc12
Assigned label: inactive
--
Compound: Cc1ccccc1NC(=O)C(=O)c1c(O)c2ccc(O)cc2oc1=O
Assigned label: inactive
